Test: Cytotoxicity counterscreen for inhibitors of SARS-CoV-2 cell entry (AID 1645845); further: nearly all actives have a fitted effect of over 50% in size
Details: cell viability (SARS-CoV-2 entry assay cells); series mostly up to 57.1 µM
Experimental: Assay Provider: Wei Zheng, Ph.D. National Center for Advancing Translational Sciences, National Institute of Health, Rockville, MD. SARS-CoV-2 spike protein, within the viral envelope, mediates viral attachment and infection of host cells. The SARS-CoV-2 spike protein specifically binds to the host receptor ACE2 (Angiotensin-converting enzyme 2). […] 7. […] Dispense 4 uL/well of ATPLite 1step luminescence assay reagent (PerkinElmer #6016739). […] 9. […] Read luminescence signal (Viewlux plate reader, PerkinElmer). […]
Records with an inconclusive call do not appear. Active and inactive are the calls of the source. The call rests on the fitted dose curve.
Bench note: report the call from YES (active), NO (inactive)

Kindly provide the recorded test outcome for the following compound: N#CC(c1ccc(Cl)cc1)c1c(Cl)cc(-n2ncc(=O)[nH]c2=O)cc1Cl (stereo not given)
NO

Which outcome was assigned to CCNC(=O)[C@H]1O[C@@H](n2cnc3c(N)nc(NCCc4ccc(CCC(=O)O)cc4)nc32)[C@H](O)[C@@H]1O in this test?
NO

Assay result, entry O=C1CN2Cc3c(ccc(Cl)c3Cl)N=C2N1 — outcome?
NO

Dear colleague, could you share the recorded outcome for CC(C)c1cnn2c(NCc3ccccc3)cc(N[C@@H](CO)[C@H](O)CO)nc12 when you have a moment?
NO

Answer briefly: the call reported for NCC1CCC(C(=O)O)CC1 (stereo not given) in this assay.
NO

Field: outcome | Entry: COc1cc2c(cc1Cc1cccc(Cl)c1F)c(=O)c(C(=O)O)cn2[C@H](CO)C(C)C
NO

What was the test verdict on Nc1ncnc2c1nc(Cl)n2[C@@H]1O[C@H](CO)[C@@H](O)[C@@H]1O ?
NO

Dear colleague, could you share the recorded outcome for COc1cccc([C@@H](C)NCCCc2ccccc2Cl)c1 when you have a moment?
NO

State the result this test recorded for CC(C)C[C@H](NC(=O)CNC(=O)c1cc(Cl)ccc1Cl)B1OC(=O)CC(CC(=O)O)(C(=O)O)O1 (stereo not given in full) .
YES

# lookup: test call for CCOC(=O)C1=C(C)NC2=C(C(=O)CC(C)(C)C2)C1c1ccc(-c2ccccc2)cc1 (stereo not given)
NO

What classification did COc1nccc(-c2c(-c3ccc(F)cc3)ncn2C2CCC(O)CC2)n1 (stereo not given) end up with in this test?
NO

Record request — test call for Cc1ccn(-c2ccc(-c3ncco3)cc2)c(=O)c1-c1ccc2nc(N)ncc2c1
NO

Dear all, I need the recorded test outcome for CNC1CCC(N(Cc2cccc(-c3ccncc3)c2)C(=O)c2sc3ccccc3c2Cl)CC1 (stereo not given) , thank you.
YES

Dear all, I need the recorded test outcome for CC(C)C(C)C=CC(C)C1CCC2C3=CC=C4CC(O)CCC4(C)C3CCC21C (stereo not given) , thank you.
NO

What outcome does the record of this test show for Cc1cc2nc3c(=O)[nH]c(=O)nc-3n(CC(O)C(O)C(O)CO)c2cc1C (stereo not given) ?
NO

Tell me the recorded outcome of this test for Cc1cnc(-c2cc(N3CCN(C(=O)CCS(C)(=O)=O)CC3)ncc2Cl)c(C)c1 .
NO

For CO[C@@H]1COCC[C@@H]1N[C@@H]1CC[C@@](C(=O)N2CCc3ncc(C(F)(F)F)cc3C2)(C(C)C)C1 , what call appears in the results of this test?
NO

Short answer needed: outcome of this test for CCOC(=O)c1c(CSc2ccccc2)n(C)c2cc(Br)c(O)c(CN(C)C)c12 ?
NO

What did the test return for O=C1CCCC(=O)C1C(=O)c1ccc(C(F)(F)F)cc1[N+](=O)[O-] ?
NO

Recorded test outcome, item Cn1cnc(=N)c2[nH]cnc21
NO
